# MEASUREMENT PROTOCOL: ATG_PPRE_CIS: Attagene CIS-FACTORIAL HepG2 Assay for human Peroxisome Proliferator-activated Response Element (PPRE) (AID 2282958)
# STATED CONDITIONS: HepG2 PPRE cis-element reporter, Attagene transcription factor profiling; actives raise or lower the signal
Active and inactive are the calls of the source. How the source made its calls: active means hit-call score of the fitted dose curve at least 0.9, where 1 is the maximum; inactive means score below 0.9.
REPORTED PROPERTY: AC50

Solved cases (5 shown):
- COMPOUND: "C[C@]12CC[C@@H]3c4ccc(O)cc4CC[C@H]3[C@@H]1CC[C@@H]2OC(=O)CCC1CCCC1"
  AC50: "100 µM (active)"
- COMPOUND: "Cc1cc(Cc2cc(C)cc(C(C)(C)C)c2O)c(O)c(C(C)(C)C)c1"
  AC50: "inactive"
- COMPOUND: "FC1(F)C=CC(F)(F)C1(F)F"
  AC50: "inactive"
- COMPOUND: "Cn1sccc1=O"
  AC50: "inactive"
- COMPOUND: "Brc1ccc(Oc2ccc(Br)cc2Br)cc1"
  AC50: "inactive"

# AC50 lookup, item CCCCCCCCC1CCC(=O)O1 (configuration not stated)
inactive

# AC50 lookup, item CCCCCCCCCCCCCCCC(=O)OC
inactive

----------
# SYSTEM TESTED: Retinoic acid receptor alpha (Homo sapiens) (UniProt P10276)
# Sequence (P10276 whole entry, looked up): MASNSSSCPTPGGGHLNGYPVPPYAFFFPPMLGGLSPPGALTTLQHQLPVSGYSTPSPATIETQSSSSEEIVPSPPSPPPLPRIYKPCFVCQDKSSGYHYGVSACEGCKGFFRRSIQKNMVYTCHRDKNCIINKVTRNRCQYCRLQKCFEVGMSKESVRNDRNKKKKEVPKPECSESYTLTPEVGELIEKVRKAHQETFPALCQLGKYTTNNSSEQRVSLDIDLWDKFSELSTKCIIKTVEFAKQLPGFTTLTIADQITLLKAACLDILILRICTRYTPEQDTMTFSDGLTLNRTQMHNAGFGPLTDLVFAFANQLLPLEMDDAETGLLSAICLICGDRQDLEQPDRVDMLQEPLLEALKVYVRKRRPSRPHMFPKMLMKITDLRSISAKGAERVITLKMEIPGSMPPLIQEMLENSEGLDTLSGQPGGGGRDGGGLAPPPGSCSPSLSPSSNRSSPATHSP
# MEASUREMENT PROTOCOL: ATG_DR5_RAR_CIS: Attagene CIS-FACTORIAL HepG2 Assay for human Retinoic Acid Receptor Alpha (RARE), DR5 submotif (AID 2282934)
# STATED CONDITIONS: HepG2 Attagene cis-factorial RARE DR5 reporter, mRNA; actives raise or lower the signal
The source made the active and inactive calls. The calls were made as follows: active = hit-call score of the fitted dose curve at least 0.9, where 1 is the maximum; inactive = score below 0.9.
Write down the outcome that applies. Available outcomes: true (active), false (inactive)

- COMPOUND: "CCOC(OCC)C(=O)c1ccccc1"
  ASSIGNED CATEGORY: "false"
- COMPOUND: "O=S(=O)(O)C(F)(F)C(F)(F)C(F)(F)C(F)(F)C(F)(F)C(F)(F)C(F)(F)C(F)(F)C(F)(F)C(F)(F)F"
  ASSIGNED CATEGORY: "false"
- COMPOUND: "CCO[Si](CCC1CCC2OC2C1)(OCC)OCC (configuration not stated)"
  ASSIGNED CATEGORY: "false"

Which outcome did this test record for the compound CCCCCC(C)OC(=O)COc1ccc(Cl)c2cccnc12 (configuration not stated) ?
false

Which outcome did this test record for the compound C=Cc1ccc(O)c(OC)c1 ?
false

----------
# SYSTEM TESTED: Transcription factor E2F1 (Homo sapiens) (UniProt Q01094)
# Sequence (Q01094 whole entry, looked up): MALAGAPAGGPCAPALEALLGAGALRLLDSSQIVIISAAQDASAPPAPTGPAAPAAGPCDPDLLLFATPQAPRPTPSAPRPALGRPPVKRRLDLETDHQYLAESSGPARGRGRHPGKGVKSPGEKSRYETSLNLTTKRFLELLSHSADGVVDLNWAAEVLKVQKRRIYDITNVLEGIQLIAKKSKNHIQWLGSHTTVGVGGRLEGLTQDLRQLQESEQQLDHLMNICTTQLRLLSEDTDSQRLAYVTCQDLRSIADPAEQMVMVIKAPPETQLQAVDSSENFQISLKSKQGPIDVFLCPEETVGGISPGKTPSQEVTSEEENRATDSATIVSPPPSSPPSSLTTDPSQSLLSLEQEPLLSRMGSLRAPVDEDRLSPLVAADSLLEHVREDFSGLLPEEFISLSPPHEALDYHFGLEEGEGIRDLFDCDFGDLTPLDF
# MEASUREMENT PROTOCOL: ATG_E2F_CIS: Attagene CIS-FACTORIAL HepG2 Assay for human E2F Transcription Factor 1 (AID 2282935)
# STATED CONDITIONS: HepG2 Attagene cis-reporter, E2F reporter RNA transcripts; actives raise or lower the signal
Calls of active or inactive are those of the source. How the source made its calls: active means hit-call score of the fitted dose curve at least 0.9, where 1 is the maximum; inactive means score below 0.9.
Write down the outcome that applies. Available outcomes: active, inactive

Before answering, review these 10 worked examples.
- MOLECULE: "Clc1ccc(Nc2nnc(Cc3ccncc3)c3ccccc23)cc1"
  ASSIGNED CATEGORY: "inactive"
- MOLECULE: "CCN(CC)CC"
  ASSIGNED CATEGORY: "inactive"
- MOLECULE: "CC(=O)Nc1ccc(S(N)(=O)=O)cc1"
  ASSIGNED CATEGORY: "inactive"
- MOLECULE: "C=CCOCC(CO)(CO)CO"
  ASSIGNED CATEGORY: "inactive"
- MOLECULE: "Cc1[nH]nc2c1N=C(c1ccccc1Cl)c1cc([N+](=O)[O-])ccc1N2"
  ASSIGNED CATEGORY: "inactive"
- MOLECULE: "FC(OC(F)(F)C(F)(F)C(F)(F)F)C(F)(F)F (stereo unspecified)"
  ASSIGNED CATEGORY: "inactive"
- MOLECULE: "C=CC(=C)CC/C=C(\\C)CCC=C(C)C"
  ASSIGNED CATEGORY: "inactive"
- MOLECULE: "O=C1OC2(c3ccccc31)c1cc(I)c(O)c(I)c1Oc1c2cc(I)c(O)c1I"
  ASSIGNED CATEGORY: "inactive"
- MOLECULE: "O=C(F)C(F)(F)C(F)(F)C(F)(F)C(F)F"
  ASSIGNED CATEGORY: "inactive"
- MOLECULE: "OCC(CO)(CBr)CBr"
  ASSIGNED CATEGORY: "inactive"

Which outcome did this test record for the molecule CCCCCCCCCCCC(=O)O ?
inactive

Which outcome did this test record for the molecule CCOC(=O)c1nc(C(Cl)(Cl)Cl)n(-c2ccc(Cl)cc2Cl)n1 ?
active

Which outcome did this test record for the molecule Cc1ccc(N=Nc2c(O)ccc3ccccc23)c(C)c1 ?
inactive

Which outcome did this test record for the molecule CC(C)c1c(C(=O)Nc2ccccc2)c(-c2ccccc2)c(-c2ccc(F)cc2)n1CC[C@@H](O)C[C@@H](O)CC(=O)O ?
inactive

Which outcome did this test record for the molecule CCCCCCCCCCCCCCCC(=O)OC ?
inactive

Which outcome did this test record for the molecule FC1(F)C=CC(F)(F)C1(F)F ?
inactive
